molecular target: human CCR8 (human, UniProt P51685 1-355); test: cell-based or functional assay
Sequence (P51685 whole entry): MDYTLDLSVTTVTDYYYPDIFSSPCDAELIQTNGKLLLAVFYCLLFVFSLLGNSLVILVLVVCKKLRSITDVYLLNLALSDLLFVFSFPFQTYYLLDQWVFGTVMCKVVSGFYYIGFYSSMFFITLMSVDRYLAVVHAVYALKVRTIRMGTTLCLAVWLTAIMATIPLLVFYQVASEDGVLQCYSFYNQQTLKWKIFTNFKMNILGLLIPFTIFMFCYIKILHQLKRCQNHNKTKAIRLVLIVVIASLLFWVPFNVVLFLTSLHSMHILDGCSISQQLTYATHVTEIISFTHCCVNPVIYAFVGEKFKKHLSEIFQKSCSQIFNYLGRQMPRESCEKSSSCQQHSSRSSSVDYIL
The following binders are shown together with reported Neutralizing Activity IC50 (nM), Ca2+ influx by 100 nM hCCL1 values.
Answer in nM, number only, no unit symbol.

Sample answers from the record:
10A11 (antibody, V domains shown, mouse hybridoma antibody; also called m10A11; clone No. 10A11) VH: EVQLVESGGRLVQPKGSLKLSCAASGFAFNTYALYWIRQAPGKGLEWVARIRSKSNNYATYYADSVKDRFTISRDDSQSMLYLQMNNLKTEDTAMYYCVRARFYYSDYGYAMDYWGQGTSVTVSS VL: DIVMTQAAPSVPVTPGESVSISCRSSKSLLHSNGNTYLYWFLQRPGQSPQLLIYRMSNLASGVPDRFSGSGSGTAFTLRISRVEAEDVGVYYCMQHLEYPLTFGAGTKLELKR :: 0.08
1H4 (antibody, V domains shown, mouse hybridoma antibody) VH: EVQLVESGGRLVQPKGSLKLSCAASGFTFNTYAMYWIRQAPGKGLEWVARIRSKSNNYATYYADSVKDRFTISRDDSQSMLYLQMNNLKTEDTAMYYCVRARFYYSDYGYAMDYWGQGTSVTVSS VL: DIVMTQAAPSVPVTPGESVSISCRSSKSLLHSNGNTYLYWFLQRPGQSPQLLIYRMSNLASGVPDRFSASGSGTAFTLRISRVEAEDVGVYYCMQHLEYPLTFGAGTKLELKR :: 0.32
27G1 (antibody, V domains shown, mouse hybridoma antibody) VH: EVQLVESGGRLVQPKGSLKLSCAASGFAFNTYAMYWIRQAPGKGLEWVARIRSKSNNYATYYADSVKDRFTISRDDSQSMLYLQMNNLKTEDTAMYYCVRARFYYSDYGYAMDYWGQGTSVTVSS VL: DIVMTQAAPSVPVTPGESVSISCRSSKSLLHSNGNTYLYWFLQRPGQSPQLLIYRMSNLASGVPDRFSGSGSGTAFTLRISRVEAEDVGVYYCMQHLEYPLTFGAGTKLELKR :: 0.09
2C7 (antibody, V domains shown, mouse hybridoma antibody) VH: QVQLKQSGPSLVQPSQSLSITCTVSGFSLTAYGVHWIRQSPGKGQEWLGVIWRGGSTDYNAAFMSRLTITKDNSKSQVFFKMNSLQADDTAIYYCAKKGGSYAMDYWGQGTSVTVSS VL: DVVLTQTPLSLPVSLGGQASISCRSSQSLVHSNGNTYLHWYLQKPGQSPKLLIYKVSNRFSGVPDRFSGSGSGTDFTLKISRVEAEDLGVYFCSQSTQVPLTFGAGTKLELKR :: 0.4

In the following, a different binder is considered.
Ask | Name the recorded Neutralizing Activity IC50 (nM), Ca2+ influx by 100 nM hCCL1 of the item 8F7 (antibody, V domains shown, mouse hybridoma antibody) VH: EVQLVESGGRLVQPKRSLKLSCAASGFTFNPYAMYWIRQAPGQGLEWVARIRSKSNNYATYYADSVKDRFTISRDDSQSMLYLQMNNLKTEDTAMYYCVRGHQGTMDYWGQGTSVTVSS VL: DIVMTQAAPSVPVTPGESVSISCRSSKSLLHSNGNTYLYWFLQRPGQSPQLLTYRMSNLASGVPDRFSGSGSGTAFTLRISRVEAEDVGVYYCMQHLEYPFTFGGGTKLEIKR in your answer.
Reply | 1.56
